assay: protein stability index of a GFP-peptide fusion (yeast GPS) (PSI 1-4); higher = more stable; sorted into four equal gates, so the index is relative within each strain; details: doa10∆
Hi, to clarify the labels: T covers protein stability index from 3 upward, F covers anything below 3.

inputSequence	classLabel
SLQSSSQTQLENANAAN [MED2]	F
YYSLNIDYHKTAKETKM [RPN11]	F
RENGKGGQIAHILFQNN [ROX3]	F
QAMGVFLTNYNVRMDTM [RPB2]	T
SGDKEATAPLIQRKNKK [RPN8]	T
TEQQIEVPEGVTVSIKS [RPL9A]	F
QSRLMSTSYHLNSTLES [MED6]	F

---

Some sequences, each annotated with its measured protein stability index.
test: protein stability index of a GFP-peptide fusion (yeast GPS) (PSI 1-4); higher = more stable; sorted into four equal gates, so the index is relative within each strain; conditions: doa10∆
measureName: protein stability index

inputSequence	measureName	obsValue
NKVSNTVSPTQDKDAIR [SIR2]	protein stability index	2.98
DAAAEEEKEEEAAEESD [RPP1B]	protein stability index	3.19
ANVPSTATTGKRKPAKS [RPN4]	protein stability index	2.64
GSIGSRKYSFNYSSLPS [YAR002W/NUP60]	protein stability index	1.95
SGTPTLKKNIEPKKDKE [YOR098C/NUP1]	protein stability index	3.39
VLSPDSNIMSDSKKIKV [GAL11]	protein stability index	2.03
SVNFFVSLLKKNWQNVG [RPL1A]	protein stability index	1.19
DLTRVYKAISAQADKQD [FAS2]	protein stability index	1.54
VQDLGSAISVTNVEDPL [SIR2]	protein stability index	2.34
ARRRQPTDQNNQSNLNG [SNF2]	protein stability index	2.88
NGFAPISEVMEDRNQRI [FAS1]	protein stability index	3.44
LTNILRMMGCVKKQKSA [FAS2]	protein stability index	1.91
FFNGKALNNAIPGGPKF [PRP8]	protein stability index	3.29
RNNVANKQPRNESFNRR [YAR002W/NUP60]	protein stability index	3.04
SAQQNLASSFVNGFLNL [RPN1]	protein stability index	2.73
ININEFALPAGSPKSAT [CDC53]	protein stability index	2.71
VKLWEEDPDQEECSGRR [YGL100W/SEH1]	protein stability index	3.18

---

Let's look at some sequences and their measured protein stability index.
experiment: protein stability index of a GFP-peptide fusion (yeast GPS) (PSI 1-4); higher = more stable; sorted into four equal gates, so the index is relative within each strain; conditions: pdr5∆
measureName: protein stability index

inputSequence	measureName	obsValue
ENDQQDNEEWMNDVINT [LIN1]	protein stability index	3.24
PKNVKGEEDADEEETAE [RPN1]	protein stability index	3.16
PSTRSNFILEVFGTIIP [YJL039C/NUP192]	protein stability index	1.41

---

experiment: protein stability index of a GFP-peptide fusion (yeast GPS) (PSI 1-4); higher = more stable; sorted into four equal gates, so the index is relative within each strain; settings: ubr1∆
measureName: protein stability index

inputSequence	measureName	obsValue
MCGVIVKQYNKKWPQFY [SIN4]	protein stability index	1.74
YVGNKRLELAGQLISLL [RET1]	protein stability index	2.92
INVDNDPFFAQSEDLSH [YML103C/NUP188]	protein stability index	3.05
VEKTEKPKKPKGRAYKR [RPS30A]	protein stability index	3.05
APKIHILDPSTEYCVGD [YMR129W/POM152]	protein stability index	2.79
